System: ACHN renal
EXPERIMENTAL PROTOCOL: NCI tumour cell line growth inhibition, 48 h
Please go through the items and note down their TGI.

// returns reported TGI for input O=C1c2ccccc2C(=O)N1C/C=C/CO
> 100 µM

Same question for O=C1c2ccccc2-c2c1c1c(O)cccc1n2-c1ccccc1 please.
> 100 µM

Same question for COc1ccc(-c2nc(N3CCN(C(=O)C4CCCCC4)CC3)c3c4c(sc3n2)CCCC4)cc1 please.
> 100 µM

Same question for [O-][n+]1onc2c1/C(=N/O)CCC2 please.
> 100 µM

Same question for O=C1C(=Cc2cccc(O)c2)N=C(c2ccccc2)N1n1c(-c2ccccc2)nc2ccccc2c1=O please.
58 µM

---

Please go through the items and note down their TGI.
Tested on: UACC-62 melanoma
EXPERIMENTAL PROTOCOL: NCI tumour cell line growth inhibition, 48 h
// return numeric value only (unit: µM, not printed)

Query TGI on UACC-62 melanoma for COc1ccc(CNc2nc3cc(N)cc(N)c3nc2-c2ccccc2)cc1
29.8

Same question for COc1cnc2c(c1)C(=O)c1c-2n(CCCNC(C)C)c(=O)c2cc(F)ccc12 please.
1.27

Same question for C=C(C)[C@@H]1CC[C@]2(CO)CC[C@]3(C)[C@H](CC[C@@H]4[C@@]5(C)CCC(NCCc6ccc(O)cc6)C(C)(C)[C@@H]5CC[C@]43C)[C@@H]12 (stereo not given in full) please.
3.09

Same question for Cl/C(=C\C=Nc1ccc(I)cc1)c1ccc2ccccc2c1 please.
34.3

---

Tested on: LOX IMVI melanoma
EXPERIMENTAL PROTOCOL: NCI tumour cell line growth inhibition, 48 h
Please go through the items and note down their GI50.

// returns reported GI50 for input C/C(=C(\c1ccc(OCCN2CCCCCC2)cc1)c1ccc(OC(=O)Cc2ccccc2)cc1)c1ccc(Cl)cc1
2.51 µM

Same question for C=C1C(=O)O[C@@H]2C1C[C@@H](O)C(=C)CC/C=C(\C)CCC[C@H](C)[C@H]2OC(C)=O (stereo not given in full) please.
2.14 µM

Same question for C=CN(C)S(C)(=O)=O please.
> 100 µM

Same question for CCS(=O)(=O)Nc1cccc(Nc2c3cccc(C)c3nc3c(C)cccc23)c1OC please.
0.273 µM

Same question for NC1=NCCN1CC(=O)O please.
> 10000 µM

Same question for O=C(NO)c1ccc(Cn2c(=O)n(-c3ccccc3F)c(=O)c3ccccc32)cc1 please.
1.71 µM

Same question for COc1ccc(CNc2nc3cc(N)cc(N)c3nc2-c2ccccc2)cc1 please.
13.6 µM

Same question for C=C(CN1CCN(c2cccc(C(F)(F)F)n2)CC1)c1ccc(C(=S)Nc2ccccc2N)cc1 please.
3.72 µM

Same question for O=c1c2c3c(sc2nc(N/N=C/c2ccc(Br)cc2)n1Cc1ccccc1)CCCC3 please.
19.3 µM

Same question for O=C(CCC(C(=O)c1ccccc1)c1ccccc1)c1ccccc1 (stereo not given) please.
20.7 µM

---

Please go through the items and note down their TGI.
System: HT29 colon
EXPERIMENTAL PROTOCOL: NCI tumour cell line growth inhibition, 48 h

// returns reported TGI for input c1ccc(CN=C(NCc2ccccc2)NCc2ccccc2)cc1
19.8 µM

Same question for O=C(NCC(O)CNC(=O)C(F)(F)F)C(F)(F)F please.
> 100 µM

Same question for O=C(NCc1ccncc1)C12CC3CC(C1)CC(c1ccc(Cl)cc1)(C3)C2 please.
25.4 µM

Same question for Cc1ccc(-c2nc(N3CCCNCC3)c3oc(-c4ccccc4)nc3n2)cc1 please.
3.15 µM

Same question for CC(=O)C1(N=Nc2ccc(S(N)(=O)=O)cc2)CCOC1=O (stereo not given) please.
> 100 µM

Same question for O=C1OCc2cc3cc4c(cc3c(-c3ccc5c(c3)OCO5)c21)OCO4 (tested in a mixture with another compound) please.
> 100 µM

Same question for Cl/C(=C\C=Nc1ccc(I)cc1)c1ccc2ccccc2c1 please.
> 100 µM

Same question for O=c1oc(=O)c2oc3ccccc3oc1=2 please.
> 100 µM

Same question for Nc1c(C(=O)c2ccc(CCCN3CCOCC3)cc2)cnn1-c1ccc(F)cc1 please.
> 25 µM

Same question for COc1cc(/C=C2\C(=O)N(C(=O)c3ccc(NC(C)=O)cc3)N=C2C)ccc1O please.
> 100 µM

---

Please go through the items and note down their TGI.
Test system: MOLT-4 leukemia
EXPERIMENTAL PROTOCOL: NCI tumour cell line growth inhibition, 48 h
// return numeric value only (unit: µM, not printed)

// returns reported TGI for input O=C(c1cc2c(c3ccccc13)NCCN=C2C(F)(F)F)C(F)(F)F
38

Same question for C[C@H](CCCNCCCNCCCN)[C@H]1CC[C@H]2[C@@H]3[C@H](OCCCN)C[C@H]4C[C@H](OCCCN)CC[C@]4(C)[C@H]3C[C@H](OCCCN)[C@]12C please.
8.12

---

System: OVCAR-8 ovarian
EXPERIMENTAL PROTOCOL: NCI tumour cell line growth inhibition, 48 h
REPORTED PROPERTY: TGI

// returns reported TGI for input COC(=O)/C=C(\S/C(=N\n1cc(C(=O)OC)c(C(=O)OC)c1-c1ccc(C)cc1)c1ccc(C)cc1)C(=O)OC
34.9 µM

Same question for Cc1ccc2[nH]c3c(c2c1)C1CCC(C(C)(C)C)CC1C1C(=O)N(c2ccc4c(c2)OCO4)C(=O)C31 (stereo not given) please.
4.28 µM

Same question for [O-][n+]1onc2c1/C(=N/O)CCC2 please.
> 100 µM

Same question for Cc1nc2c(o1)C(=O)c1ccccc1C2=Nc1ccc(N2CCOCC2)cc1 please.
> 27.7 µM

Same question for COc1ccccc1/C=C1\CCC(CCN2CCOCC2)C1=O (stereo not given) please.
> 100 µM

Same question for C/C(=C(\c1ccc(OCCN2CCCCCC2)cc1)c1ccc(OC(=O)Cc2ccccc2)cc1)c1ccc(Cl)cc1 please.
6.35 µM

Same question for O=C(c1cc2c(c3ccccc13)NCCN=C2C(F)(F)F)C(F)(F)F please.
> 100 µM

Same question for COC(=O)/C=C/c1cn(C(C)=O)c2ccc(Br)cc12 please.
> 100 µM

Same question for CCOC(=O)c1ccc(Nc2nc3ccccc3nc2C(=O)OCC)cc1 please.
> 100 µM

Same question for CCCCCCCCCCCCCCCCOP(=O)(O)OP(=O)(O)OCC1OC(n2ccc(N)nc2=O)C(O)C1O (stereo not given) please.
> 100 µM

---

System: EKVX NSCLC
EXPERIMENTAL PROTOCOL: NCI tumour cell line growth inhibition, 48 h
Please go through the items and note down their GI50.

// returns reported GI50 for input CN(C)CCCNC(=O)c1cncnc1Nc1ccc(OCc2cccc(F)c2)c(Cl)c1
1.58 µM

Same question for O=C1c2ccccc2-c2c1c1c(O)cccc1n2-c1ccccc1 please.
> 100 µM

Same question for O=C(Nc1nc2ccc(F)cc2s1)c1cccnc1Nc1ccc(Cl)cc1 please.
2.45 µM

Same question for COC(=O)/C=C/c1cn(C(C)=O)c2ccc(Br)cc12 please.
28.2 µM

Same question for N#CS.N=C=S.N=C=S.[Cu+2].[NH2-].[NH2-].[NH2-].[NH2-].c1ccc2ncccc2c1 please.
47.4 µM

Same question for C[C@H](CCCNCCCNCCCN)[C@H]1CC[C@H]2[C@@H]3[C@H](OCCCN)C[C@H]4C[C@H](OCCCN)CC[C@]4(C)[C@H]3C[C@H](OCCCN)[C@]12C please.
5.43 µM

Same question for CN1CC(CNC(=O)OCc2ccccc2)CC2c3cccc4c3c(cn4C)CC21 (stereo not drawn) please.
5.2 µM

Same question for Cc1ncsc1-c1ccc(CNC(=O)[C@@H]2C[C@@H](O)CN2C(=O)[C@@H](NC(=O)C2(C#N)CC2)C(C)(C)C)cc1 please.
35.2 µM

---

System: A498 renal
EXPERIMENTAL PROTOCOL: NCI tumour cell line growth inhibition, 48 h
REPORTED PROPERTY: TGI

Query TGI on A498 renal for C[C@H](CCCNCCCNCCCN)[C@H]1CC[C@H]2[C@@H]3[C@H](OCCCN)C[C@H]4C[C@H](OCCCN)CC[C@]4(C)[C@H]3C[C@H](OCCCN)[C@]12C
> 100 µM

Same question for C=C1C(=O)O[C@@H]2C1C[C@@H](O)C(=C)CC/C=C(\C)CCC[C@H](C)[C@H]2OC(C)=O (some centres not stated) please.
29.4 µM

Same question for CC(O)C1(CNc2cc(Cl)nc(N)n2)CC(CCc2ccccc2)C1 (configuration not stated) please.
27.3 µM

Same question for N#CS.N=C=S.N=C=S.[Cu+2].[NH2-].[NH2-].[NH2-].[NH2-].c1ccc2ncccc2c1 please.
51 µM

Same question for Nc1ncnc2c1ncn2[C@H]1CC[C@@H](NO)C1 please.
> 100 µM

Same question for CC(=O)c1cccc(NC(=O)C(=O)Nn2c(N)nnc2N)c1 please.
> 100 µM

Same question for O=C(COC(=O)c1cccc2c(=O)c3ccccc3[nH]c12)Nc1ccccc1 please.
> 100 µM

Same question for CN(C)CCOC(c1ccccc1)c1ccccc1 please.
58.4 µM

Same question for COC(=O)Nc1nc2ccc(NC(=O)c3cccs3)cc2[nH]1 please.
88.7 µM

Same question for COc1ccc(-c2nc(N3CCN(C(=O)C4CCCCC4)CC3)c3c4c(sc3n2)CCCC4)cc1 please.
81.3 µM

Same question for CC(=O)OCC(OC(C)=O)C(OC(C)=O)C(OC(C)=O)C(C=NN(C(C)=O)S(=O)(=O)c1ccc(/C=C2\NC(=O)NC2=O)cc1)OC(C)=O (configuration not stated) please.
> 100 µM

Same question for Cc1nn(C)cc1P(=S)(c1ccccc1)c1ccccc1 please.
> 100 µM

Same question for O=C(NC1C2CC3CC(C2)CC1C3)c1cc(/C=C/c2ccccc2)[nH]c(=S)n1 (configuration not stated) please.
> 100 µM

Same question for CCCC(=O)O.CCCC(=O)O.CCCC(=O)O.CCCC(=O)O.[Rh].[Rh] please.
0.325 µM

Same question for c1ccc(C[N+]23CN4CN(CN(C4)C2)C3)cc1 please.
> 100 µM

Same question for O=c1oc(=O)c2oc3ccccc3oc1=2 please.
> 100 µM

Same question for C/C(=N\NC(=S)N(C)CCN(C)C(=S)N/N=C(\C)c1ccccn1)c1ccccn1 please.
3 µM

Same question for O=C1c2ccccc2C(=O)N1C/C=C/CO please.
> 100 µM

Same question for S=c1nc(Cl)cc2[nH]c(Cl)cn12 please.
56.9 µM

Same question for O=C(/C(=C/c1ccc([N+](=O)[O-])cc1)SCc1ccc(F)cc1)c1ccc(Cl)cc1 please.
> 100 µM

Same question for NC(N)=NS(=O)(=O)c1ccc(Nc2c3ccccc3nc3c(C(=O)Nc4ccc(S(N)(=O)=O)cc4)ccc(Cl)c23)cc1 please.
> 100 µM

Same question for CNC(=O)CN(C)C(=O)CCC(=O)N(C)C please.
> 100 µM

Same question for O=C(Nc1nc2ccc(F)cc2s1)c1cccnc1Nc1ccc(Cl)cc1 please.
5.46 µM

Same question for Cc1cc(C)nc(SCCc2cccc[n+]2C)n1 please.
> 100 µM

Same question for Cc1nc(C(N)=S)sc1C(=O)CC(=O)C(=O)Nc1nc2ccccc2[nH]1 please.
> 100 µM

Same question for COC(=O)/C=C\C(C#N)(C#N)N=Cc1ccc(Br)s1 please.
31.5 µM

Same question for O=C(NN=C1CCCCC1)c1[nH]c2ccc(F)cc2c1-c1ccccc1 please.
> 100 µM

Same question for CCCCCCCCCCCCCCCCOCC(CCl)OP(=O)(O)OP(=O)(O)OCC1OC(n2ccc(N)nc2=O)C(O)C1O (configuration not stated) please.
> 100 µM

Same question for O=C(c1cc2c(c3ccccc13)NCCN=C2C(F)(F)F)C(F)(F)F please.
40.3 µM

Same question for COc1ccccc1/C=C1\CCC(CCN2CCOCC2)C1=O (configuration not stated) please.
> 100 µM

Same question for CC1(C)CCC(C)(C)c2c1ccc(O)c2Cc1c(O)ccc2c1C(C)(C)CCC2(C)C please.
3.43 µM

Same question for c1ccc(C(=NNc2cnc3ccccc3n2)c2ccccn2)cc1 please.
> 100 µM

Same question for COc1ccc2nc3ccccc3c(NCCCN(C)CCCl)c2c1 please.
2.42 µM

Same question for CC(=O)[C@@]1(O)[C@H](C)C[C@H]2[C@@H]3C=C(C)C4=Cc5c(cnn5-c5ccccc5)C[C@]4(C)[C@H]3[C@@H](O)C[C@@]21C please.
14.7 µM

Same question for c1ccc2c(c1)[nH]c1c2nc2ncccn21 please.
> 100 µM

Same question for COc1c(OC/C=C(\C)CCC=C(C)C)ccc2ccc(=O)oc12 please.
> 100 µM

Same question for CC(=O)N1CC(=O)N2C(=O)/C(=C/c3ccc(Cl)cc3)N=C12 please.
> 100 µM

Same question for COc1ccc(OC(C(=O)O)c2ccccc2)c2c1CCCC2=O (configuration not stated) please.
> 100 µM

Same question for COC(=O)C1C2CC3C1C3C2C(=O)OC (configuration not stated) please.
> 100 µM

Same question for CC(C)(C)OC(=O)NC1CCC(C(C)(C)C)CC1 (configuration not stated) please.
> 100 µM

Same question for CSc1ncnc2c1ncn2C1OC(CO)C(O)OC1O (configuration not stated) please.
> 53.1 µM

Same question for CCCCC(=O)OC[n+]1ccc2c(C)c3[nH]c4ccccc4c3c(C)c2c1 please.
2.62 µM
